Items are presented alongside their recorded normalized growth.
Test: chemical genetic growth profiling, strain panel (AID 1159580);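 note: tested at 20 µM; growth read once vehicle control cultures reached saturation at 30 °C; 1 = growth at the plate median or of vehicle wells; lower values mean less growth of the strain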
Details: S. cerevisiae deletion strains, growth OD, locus YPL241C, strain CIN2, stronger effect = lower value
The campaign covered roughly 5,500 compounds. About 2,000 (36%) were called active. About 18% were inconclusive and are not listed. The list shows a part of the results.

Some compounds with recorded normalized growth:
- COc1cc(C2Nc3cccc4cccc(c34)N2)cc(OC)c1OC: 0.403 (active)
- N[C@@H](C(=O)N[C@@H]1C(=O)N2C(C(=O)O)=C(Cl)CS[C@H]12)c1ccccc1: 1.09 [resistant] (active)

// fetch normalized growth given entry `CN1CCC[C@H]1c1cccnc1`
0.996 (inactive)

// fetch normalized growth given entry `COc1cc2cccc(OC)c(=O)c2c(OC)c1OC`
1.01 (inactive)

// fetch normalized growth given entry `CC(C)=CCC/C(C)=C/CO`
1 (inactive)

// fetch normalized growth given entry `CC1=C(C(=O)O)N2C(=O)[C@@H](NC(=O)[C@@H](N)c3ccc(O)cc3)[C@H]2SC1`
0.989 (inactive)

// fetch normalized growth given entry `O=C(O)CC[N+](=O)[O-]`
0.941 (inactive)

// fetch normalized growth given entry `COC(=O)c1cccc([N+](=O)[O-])c1-c1c(C(=O)OC)cccc1[N+](=O)[O-]`
1 (inactive)

// fetch normalized growth given entry CC1(C)CC23C(=O)CCC(O)C2(C)CCC13 (stereo unspecified)
1.01 (inactive)

// fetch normalized growth given entry `COc1cc(OC)c2c(OC)c(-c3ccc4c(c3)OCO4)c(=O)oc2c1`
0.992 (inactive)

// fetch normalized growth given entry `COc1cc([C@@H]2c3cc4c(cc3[C@H](O)[C@H]3COC(=O)[C@H]23)OCO4)cc(OC)c1OC`
1.01 (inactive)

###

Items are presented alongside their recorded normalized growth.
Assay: chemical genetic growth profiling, strain panel (AID 1159580);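 note: tested at 20 µM; growth read once vehicle control cultures reached saturation at 30 °C; 1 = growth at the plate median or of vehicle wells; lower values mean less growth of the strain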
Conditions: S. cerevisiae deletion strains, growth OD, locus YLR330W, strain CHS5, stronger effect = lower value
The campaign covered roughly 5,500 compounds. About 2,000 (36%) were called active. Not shown: some 18% with an inconclusive outcome. The list shows a part of the results.
Just the number.

Some compounds with recorded normalized growth:
- COc1ccc(CC(=O)c2ccc(O)cc2O)cc1: 0.923
- O=C(/C=C/c1ccccc1)c1c(O)cc(O)cc1O: 1.01
- CC(=O)Nc1c(I)cc(I)c(C(=O)O)c1I: 0.998
- CC(=O)OC[C@@]1(O)C[C@@]23CCC4c5ccoc5CC[C@]4(C)C2CC[C@@H]1C3 (some centres not stated): 0.969
- O=c1c(O)c(-c2ccccc2)oc2ccccc12: 0.997

// fetch normalized growth given entry `O=C(CCc1ccc(O)cc1)c1c(O)cc(O)cc1O`
1.01

// fetch normalized growth given entry `O=C(O)CCC(=O)OC[C@@H](NC(=O)C(Cl)Cl)[C@H](O)c1ccc([N+](=O)[O-])cc1`
0.985

// fetch normalized growth given entry `CNC(C)(C)Cc1ccccc1`
1.01

// fetch normalized growth given entry `O=c1c(O)c(-c2ccccc2)oc2cc(O)ccc12`
0.663

// fetch normalized growth given entry `O=c1c(O)c(-c2ccccc2)oc2ccc3occc3c12`
0.847

// fetch normalized growth given entry `OC[C@H]1O[C@@H](Oc2ccc(O)cc2)[C@H](O)[C@@H](O)[C@@H]1O`
1.01

// fetch normalized growth given entry `COc1ccc([C@@H](C)C(=O)c2ccc(O)cc2O)cc1`
0.888

// fetch normalized growth given entry `COC(=O)c1cc(OC)c(=O)c2c(OC)c(OC)ccc2c1`
1.02

// fetch normalized growth given entry `O=C(O)CC[N+](=O)[O-]`
0.982

// fetch normalized growth given entry `CN(C)CCC[C@@]1(c2ccc(F)cc2)OCc2cc(C#N)ccc21`
1.01

// fetch normalized growth given entry `O=C(/C=C/c1ccccc1)c1ccc(O[C@@H]2O[C@H](CO)[C@@H](O)[C@H](O)[C@H]2O)cc1O`
0.904

// fetch normalized growth given entry `CC(C)N1C(=O)c2ccccc2NS1(=O)=O`
0.994

// fetch normalized growth given entry `O=C1C=C(O)c2ccccc2C1=O`
0.959
